In what follows, each item is paired with its pIC50 for Acetylcholinesterase (Torpedo californica).
Quick note: pIC50 means taking -log10 of the concentration in moles per liter.

Ask: Kindly state the measured pIC50 obtained for COC(=O)C(Cc1c[nH]c2ccccc12)NC(=O)COc1ccc(C=O)cc1 (stereo unspecified) with Acetylcholinesterase (Torpedo californica).
Sequence (P04058 whole entry): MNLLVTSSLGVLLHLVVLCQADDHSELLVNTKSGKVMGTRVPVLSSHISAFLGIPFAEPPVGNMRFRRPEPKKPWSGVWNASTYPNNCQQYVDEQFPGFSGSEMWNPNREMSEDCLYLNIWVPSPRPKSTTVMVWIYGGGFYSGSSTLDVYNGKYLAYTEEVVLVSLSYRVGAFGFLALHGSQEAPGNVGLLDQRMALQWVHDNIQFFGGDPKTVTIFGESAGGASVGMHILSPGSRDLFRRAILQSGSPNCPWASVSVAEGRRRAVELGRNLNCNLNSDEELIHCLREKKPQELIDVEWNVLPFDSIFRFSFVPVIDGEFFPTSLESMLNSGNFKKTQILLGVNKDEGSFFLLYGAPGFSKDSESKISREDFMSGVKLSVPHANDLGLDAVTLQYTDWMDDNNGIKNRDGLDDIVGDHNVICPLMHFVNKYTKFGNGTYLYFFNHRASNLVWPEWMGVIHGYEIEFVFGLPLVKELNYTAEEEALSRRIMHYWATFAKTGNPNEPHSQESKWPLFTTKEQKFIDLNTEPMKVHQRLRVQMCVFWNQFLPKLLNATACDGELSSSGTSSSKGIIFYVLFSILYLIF
Result: 6.55

Ask: Which pIC50 is reported with Acetylcholinesterase (Torpedo californica) for this entry: COC(=O)C(Cc1ccccc1)NC(=O)COc1ccc(C=O)cc1 (stereo unspecified) ?
Result: 5.30

Ask: // lookup pIC50 | system=Acetylcholinesterase (Torpedo californica) | key= `COC(=O)CNC(=O)COc1ccc(C=O)cc1`
Result: 4.00

Ask: Any idea what pIC50 came out for COC(=O)C(C)NC(=O)COc1ccc(C=O)cc1 (stereo unspecified) on Acetylcholinesterase (Torpedo californica)?
Result: 6.72

These measurements were taken from ChEMBL document CHEMBL1147837.
